Reference for the values: patent US8575156B2

Kindly state inhibition at 0.1111 µM for each of the entries shown.
Target: 11β-HSD1 (Homo sapiens, UniProt P28845)
Sequence (P28845 whole entry): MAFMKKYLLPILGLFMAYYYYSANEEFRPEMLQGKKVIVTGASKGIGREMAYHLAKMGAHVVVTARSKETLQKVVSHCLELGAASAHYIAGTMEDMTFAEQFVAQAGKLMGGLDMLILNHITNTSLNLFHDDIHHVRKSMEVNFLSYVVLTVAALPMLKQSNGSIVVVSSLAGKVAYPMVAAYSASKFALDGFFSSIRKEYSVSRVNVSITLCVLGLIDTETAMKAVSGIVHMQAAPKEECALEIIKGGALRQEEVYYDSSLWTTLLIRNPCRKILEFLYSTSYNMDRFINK
Test: biochemical
Conditions: read-out: Average % inhibition at 111.1 nM, Biological Test Example 1; 111.1 nM compound
Answers are plain numbers, in %.

C[C@H](c1ccccc1)N1CCC(C)(c2ccccc2)OC1=O (single isomer, unassigned) [EXAMPLE 83 Isomer 1] : 50.3

Each compound below has a recorded value; state its inhibition at 0.1111 µM.
1. CNC(=O)c1cccc(-c2cccc(N3CCC(C)(c4ccccc4)OC3=O)c2)c1 (stereo not shown)
2. CC1(c2ccccc2)CCN(c2cccc(-c3ccccc3S(C)(=O)=O)c2)C(=O)O1 (stereo not shown)
3. O=C1OC(CC(O)CO)(c2ccccc2)CCN1c1cccc(-c2ccc(F)cc2F)c1 (stereo not shown)
4. O=C1OC(CCO)(c2ccc(F)cc2)CCN1c1ccc(F)c(-c2ccc(F)cc2F)c1 (stereo not shown)

**Result**
27.5
38.5
89.2
87.4

---

Target: 11β-HSD1 (Homo sapiens, UniProt P28845)
Assay: biochemical
Conditions: IC50 Range, Biological Test Example 1; microsomes from CHO cells overexpressing human 11β-HSD1
pIC50: −log10 of the molar value.
readoutLabel: pIC50

Known results for compounds:
Cc1nnc(C[C@]2(c3ccccc3)CCN([C@@H](C)c3ccc(Br)cc3)C(=O)O2)s1 [EXAMPLE 531] : > 7.00
O=C1OC(CCCO)(c2ccc(F)cc2)CCN1Cc1c(F)cccc1F (stereo not drawn) [EXAMPLE 348] : > 7.00
C[C@@H](c1ccc(-c2ccc(F)cc2F)cc1)N1CC[C@](CC(O)CO)(c2ccccc2)OC1=O (single isomer, unassigned) [EXAMPLE 173 Isomer 1] : > 7.00

Each compound below has a recorded value; state its pIC50.
1. CC1(c2ccccc2)CCN(c2cccc(-c3cccc(C#N)c3)c2)C(=O)O1 (stereo not drawn) [EXAMPLE 17]
2. O=C1OC(CCO)(c2ccccc2F)CCN1c1cccc(-c2ccc(F)cc2)n1 (stereo not drawn) [EXAMPLE 104]
3. C[C@@H](c1ccc(-c2ccc(F)cc2)cc1)N1CC[C@](CCN2CCC2)(c2ccc(F)cc2)OC1=O [EXAMPLE 462]
4. C[C@@H](c1ccc(Br)cc1)N1CC[C@](CCN2CC[C@H](F)C2)(c2ccc(F)cc2)OC1=O [EXAMPLE 377]
5. C[C@@H](c1ccc(-c2ccc(F)cc2)cc1)N1CC[C@](CCCNS(C)(=O)=O)(c2ccccc2)OC1=O [EXAMPLE 270]
6. COc1ccc([C@H](C)N2CCC(CCC(N)=O)(C(C)C)OC2=O)cc1 (single isomer, unassigned) [EXAMPLE 333 Isomer 2]

**Result**
["> 7.00", "> 7.00", "> 7.00", "> 7.00", "> 7.00", "< 7.00"]

Each compound below has a recorded value; state its pIC50.
1. CC(O)C[C@]1(c2ccc(F)cc2)CCN([C@@H](C)c2cccc(Br)c2)C(=O)O1 (stereo partly drawn) [EXAMPLE 355]
2. CNS(=O)(=O)c1cccc(-c2cccc(N3CCC(C)(c4ccccc4)OC3=O)c2)c1 (stereo not drawn) [EXAMPLE 30]
3. O=C1OC(CCO)(c2ccc(F)cc2)CCN1c1cccc(-c2ccc(F)cc2)n1 (stereo not drawn) [EXAMPLE 103]
4. CC1(c2ccccc2)CCN(c2nccc(-c3cccc(F)c3)n2)C(=O)O1 (stereo not drawn) [EXAMPLE 62]
5. CC1(c2ccccc2)CCN(c2ccnc(-c3cccc(F)c3)n2)C(=O)O1 (stereo not drawn) [EXAMPLE 56]

**Result**
1: > 7.00; 2: 6.00 to 7.00; 3: > 7.00; 4: 6.00 to 7.00; 5: 6.00 to 7.00
